Test system: Escherichia coli TOP10
protocol.notes: shrunken log2 fold change of peptide-encoding DNA abundance (4.5 h post-induction vs induction); higher = less antimicrobial activity (less host growth inhibition)
test.context: time post-induction: 4.5 h; library: site-saturation at positions 5, 18, 19, 20
A collection of sequences and their measured shrunken log2 fold change
Answer using only a numeral; do not append any unit.

Worked examples follow.
RRIRSRPPRLPRPRPRPGNVPRP : -0.0126
RRIRTRPPRLPRPRPRPIITPRP : -0.645
RRIRLRPPRLPRPRPRPHQCPRP : 0.0182
RRIRDRPPRLPRPRPRPLMYPRP : -0.00328
RRIRKRPPRLPRPRPRPITPPRP : 0.0433

What value of shrunken log2 fold change on Escherichia coli TOP10 does RRIRQRPPRLPRPRPRPTVAPRP have? 0.118

Then what about the sequence RRIRVRPPRLPRPRPRPTDAPRP ? 0.0111

And then RRIRSRPPRLPRPRPRPSGGPRP , what is it? -0.0437

Please give the result for RRIRYRPPRLPRPRPRPCSIPRP too. -0.0204

###

Tested on: Escherichia coli TOP10
protocol.notes: shrunken log2 fold change of peptide-encoding DNA abundance (4.5 h post-induction vs induction); higher = less antimicrobial activity (less host growth inhibition)
test.context: time post-induction: 4.5 h; library: site-saturation at positions 5, 18, 19, 20
The following sequences are shown together with reported shrunken log2 fold change values.
Provide a numeric answer; units are not to be included.

Reference set (4 entries):
RRIRCRPPRLPRPRPRPKRFPRP : 0.322
RRIRGRPPRLPRPRPRPWKAPRP : 0.0375
RRIRCRPPRLPRPRPRPKMVPRP : -0.0546
RRIRLRPPRLPRPRPRPFSCPRP : 0.0222

Entry under review: RRIRSRPPRLPRPRPRPPHEPRP . Reported shrunken log2 fold change? 0.229

Next entry: RRIRPRPPRLPRPRPRPLQWPRP -0.037

Try the sequence RRIRKRPPRLPRPRPRPISCPRP 0.0993

What do you have for RRIRRRPPRLPRPRPRPMQNPRP ? 0.362

###

Test system: Escherichia coli TOP10
protocol.notes: shrunken log2 fold change of peptide-encoding DNA abundance (4.5 h post-induction vs induction); higher = less antimicrobial activity (less host growth inhibition)
test.context: time post-induction: 4.5 h; library: site-saturation at positions 5, 18, 19, 20
Decide using shrunken log2 fold change: a value greater than or equal to 0.05 is criterion met, a smaller one is criterion not met.

// known answers, use as guide
RRIRRRPPRLPRPRPRPEWAPRP : criterion met
RRIRARPPRLPRPRPRPDFWPRP : criterion met
RRIRCRPPRLPRPRPRPWNKPRP : criterion not met
RRIRFRPPRLPRPRPRPASVPRP : criterion met
RRIRIRPPRLPRPRPRPASDPRP : criterion not met

Does RRIRGRPPRLPRPRPRPPDEPRP have a reported shrunken log2 fold change of at least 0.05? criterion met

Lookup RRIRRRPPRLPRPRPRPNQVPRP criterion met

Now consider RRIRFRPPRLPRPRPRPNPQPRP and answer again. criterion met

###

Item-by-item account of shrunken log2 fold change
Test system: Escherichia coli TOP10;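 further: peptides expressed intracellularly from a pBAD plasmid library in pooled LB shake-flask culture, induced with 0.3% L-arabinose, DNA abundance read by NGS, three biological replicates, DESeq2 with apeglm shrinkage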
protocol.notes: shrunken log2 fold change of peptide-encoding DNA abundance (4.5 h post-induction vs induction); higher = less antimicrobial activity (less host growth inhibition)
test.context: time post-induction: 4.5 h; library: site-saturation at positions 5, 18, 19, 20
Give the figure only, with no unit attached.

Sample answers from the record:
RRIRNRPPRLPRPRPRPKNKPRP : -0.0876
RRIRIRPPRLPRPRPRPFPDPRP : -0.131
RRIRLRPPRLPRPRPRPSRLPRP : -0.0544
RRIRCRPPRLPRPRPRPDPAPRP : 0.412
RRIRQRPPRLPRPRPRPCSWPRP : 0.171
RRIRQRPPRLPRPRPRPKMSPRP : -0.101
RRIRERPPRLPRPRPRPPYFPRP : -0.441
RRIRHRPPRLPRPRPRPCNTPRP : -0.416
RRIRPRPPRLPRPRPRPVTHPRP : -0.227
RRIRYRPPRLPRPRPRPLFWPRP : -0.214

Lab note: need shrunken log2 fold change with Escherichia coli TOP10 for entry RRIRDRPPRLPRPRPRPQNWPRP , please look it up. -0.00585

Repeat with RRIRRRPPRLPRPRPRPQGAPRP -0.0933

Next sequence: RRIRDRPPRLPRPRPRPMHWPRP 0.591

Queued: RRIRMRPPRLPRPRPRPGFTPRP 0.00309

Quick one: RRIRTRPPRLPRPRPRPGQEPRP -0.184
